// data source = the supplement of paper PMC10849652

Test System: ZMYM1 (UniProt Q5SVZ6)
Sequence (Q5SVZ6 whole entry, looked up): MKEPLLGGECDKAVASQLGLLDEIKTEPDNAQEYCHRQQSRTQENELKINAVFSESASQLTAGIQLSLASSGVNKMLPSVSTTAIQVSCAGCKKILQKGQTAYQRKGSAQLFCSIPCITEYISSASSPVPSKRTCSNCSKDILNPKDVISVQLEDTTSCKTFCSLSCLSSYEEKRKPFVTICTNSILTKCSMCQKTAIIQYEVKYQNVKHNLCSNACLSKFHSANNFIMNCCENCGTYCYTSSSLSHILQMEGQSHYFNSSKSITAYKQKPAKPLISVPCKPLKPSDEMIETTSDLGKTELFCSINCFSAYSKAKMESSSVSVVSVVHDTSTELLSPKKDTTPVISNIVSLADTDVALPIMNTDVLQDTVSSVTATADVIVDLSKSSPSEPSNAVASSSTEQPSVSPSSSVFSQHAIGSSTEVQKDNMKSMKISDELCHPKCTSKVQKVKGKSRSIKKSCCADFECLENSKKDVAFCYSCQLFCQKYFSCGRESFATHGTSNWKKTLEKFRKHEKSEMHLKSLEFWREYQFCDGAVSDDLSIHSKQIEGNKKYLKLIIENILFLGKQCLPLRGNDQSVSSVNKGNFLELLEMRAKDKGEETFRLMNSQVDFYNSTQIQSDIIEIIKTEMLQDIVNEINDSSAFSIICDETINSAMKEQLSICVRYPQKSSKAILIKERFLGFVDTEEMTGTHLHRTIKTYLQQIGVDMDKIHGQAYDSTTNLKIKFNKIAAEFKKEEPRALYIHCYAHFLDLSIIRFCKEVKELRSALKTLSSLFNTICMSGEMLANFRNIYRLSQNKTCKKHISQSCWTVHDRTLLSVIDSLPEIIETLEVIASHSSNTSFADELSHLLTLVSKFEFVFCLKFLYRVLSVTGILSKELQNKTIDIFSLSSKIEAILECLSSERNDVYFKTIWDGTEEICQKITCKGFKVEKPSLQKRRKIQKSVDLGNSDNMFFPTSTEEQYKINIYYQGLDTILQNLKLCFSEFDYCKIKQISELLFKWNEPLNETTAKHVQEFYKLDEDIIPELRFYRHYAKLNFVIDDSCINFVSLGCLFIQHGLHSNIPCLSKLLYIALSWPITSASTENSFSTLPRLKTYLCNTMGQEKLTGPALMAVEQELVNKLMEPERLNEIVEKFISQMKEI
Assay Text: log2 fold change, soluble protein after heating vs DMSO (PISA); higher = thermal stabilisation; K562 cells, 10 uM, 30 min; active = over 0.2 and 3.5 SD of the protein, either way, in both replicates (recomputed)
About 7,900 targets were measured; listed, in parts, are those with a hit and a random draw of the rest. About 0.6% of all pairs of compound and target were hits.
Outcome Measure: log2 fold change
Hey, just send me the number, nothing else.

Below, each entry is followed by its recorded log2 fold change result.
[[record]]
structure_string = "O=C(Nc1cccc(Nc2ncc(Br)c(NCCc3cnc[nH]3)n2)c1)N1CCCC1"
obs_value = -0.136

[[record]]
structure_string = "Oc1cc(-c2nc(-c3ccccc3)[nH]c2-c2ccncc2)ccc1Cl"
obs_value = -0.101

[[record]]
structure_string = "CC(C)(O)CC(=O)NCCn1ccc2ncnc(Nc3ccc(Oc4cccc(C(F)(F)F)c4)c(Cl)c3)c21"
obs_value = -0.01

[[record]]
structure_string = "C[C@@H](N)c1ccc(C(=O)Nc2ccnc3[nH]ccc23)cc1"
obs_value = 0.016

[[record]]
structure_string = "CNC(=O)c1ccc(Nc2ncc(C(F)(F)F)c(NCc3nccnc3N(C)S(C)(=O)=O)n2)cc1"
obs_value = 0.558


What the record says about "COc1cccc2cc(-c3nc([C@H]4CC[C@H](C(=O)O)CC4)n4ncnc(N)c34)[nH]c12" : log2 fold change is -0.128

According to the records, this compound "NC(=O)c1cnc(N[C@@H]2CCCC[C@@H]2N)nc1Nc1cccc(-n2nccn2)c1" displays log2 fold change of -0.123

Record "O=C(CCCCCCC(=O)Nc1ccccc1)NO" , field log2 fold change: -0.02

Recorded log2 fold change (compound "COC(=O)[C@H](CCSC)NC(=O)c1ccc(NC[C@@H](N)CS)cc1-c1ccccc1" ): 0.026
